Every entry's value here was drawn from the supplement of paper PMC6555819.

system: PPARg homodimer (NR concentration 180 nM); test: PBM binding z-score (relative to random genomic background probes); higher = stronger binding; sequences stand for … in GC…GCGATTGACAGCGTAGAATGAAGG
reported metric: PBM binding z-score

TCATATAGGTAATACAGGTGAAGGTCGGCATCTA	1.83
ATTTGTAGGTTAGCTGGGGTCATTCAGACTAGGC	4.33
TAGCCTAGGTCATGCTGGCCAGTATAGTGTCGGC	0.715
TAGCTTAGGTCATTGGGCCAGTATAGTACGCATC	1.34
ACTAGTTGGTCAGCTGAGGTCAAACACAATTCGG	3.02
AGAACGAGGGCAACGAGTTGATAGCACGGGTGGC	-0.253
CCTTACGGGTCAAGGTTTTAGCACGGGTGGTACG	2.55
TATACAGGGTCAATGGCCAGAGTACGAATGTCGA	1.97
AGAATGAGGTTACCAAAGATCAGAGAAACGCTTG	0.304
GCTGGGAGGACAAGGTCAGAGCTTTGTCCGTAGA	1.02
AGAATGAGGTTACAAAAGATCAGGGAAACGCTTG	0.909
CCTACTGGGCAAAAGGTCATTGATTCCAATGCTC	3.07

----------
Reported PBM binding z-score values for the following sequences.
tested on: LXRb homodimer (NR concentration 270 nM); assay: PBM binding z-score (relative to random genomic background probes); higher = stronger binding; sequences stand for … in GC…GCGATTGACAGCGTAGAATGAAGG
reported metric: PBM binding z-score

ACTAGCAGGCCAAGGGTCAGTCAAGATTAGTCCG	-0.691
CAGACTAGGTCACAGAGGTCAAAGTCCGTGCGTA	1.62
CCGACTGGGGCAGAACGGTTACCATACCATCCGG	-1.24
CGACCAAGGTCAAAGGTCAGTGAAGAGATGACGG	1.18
CCGAGTAGATTATGGGGCATTCAGGCAACGGTGA	-0.645
GCTAGTTGGTCAGTAAAAGGTCACACCCCGGTCG	0.781
CGTCAAAGTTCAATGTAACGTAACAGAAAGCAGC	1.74
TGAATGAGGTTAAAAATCAGGGAACGTGGCGTCG	0.545
TTACCAAGGTGAGCAGAGGTCGTTGATCCAACTC	-0.627
AGAATGAGGTAATACGTAGATCAGGGAAGAAAGT	-0.209
TCTATTAGTTGAAGGTCAACCGACGAGTCCGTTT	1.95
TAGCCTAGGTCATTCAGGGGCCAGTTTAGAAAGC	0.887

----------
tested on: RXRa homodimer (NR concentration 180 nM); assay: PBM binding z-score (relative to random genomic background probes); higher = stronger binding; sequences stand for … in GC…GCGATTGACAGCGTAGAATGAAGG
reported metric: PBM binding z-score

CGAACTAGGTCATCCAGAACAGTGAATACATTGA	2.89
GCTAGTTGATCAGTAAAAGGTCACACACCGGTCG	5.54
CCTAGTGGGCCATCAGGTCATTGATATCAACGTT	1.45
TCTTGTAGATCAAAGGATAAGAAAGCCGAAGCCT	0.0933
TCTAGCAGGCCAGAGGGTCATTCAAGAGGTACGG	2.87
TAGCCCAGGTCATTCAGGGGCCAGTATAGAAAGC	3.39
CCTACAGGGCCACGAAAGGTCATTGATTCAGTGA	5.27
CCTACTGAGCCAAAAAGGTCATTGATGCCGATAA	5.03
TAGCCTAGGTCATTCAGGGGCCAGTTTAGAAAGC	2.56
CATACTGGGCCAAAAAGGTCATTGATGCCGATAA	5.11
GCTGCTAGGCCAACTGATGGTCAGCTAAAGCTCG	-0.651
GCTGCTAGGTCAACTGATGGTCAGCTGAAGCTCG	2.82
AGAACGAGGGCAGGCTGAGTTGATAGCAGAGTAG	0.342
TGAATGAGGTTAAAGATCGGGGAACGTGGCGTCG	3.31
CCTCGGGGGACAGAAGGTCAGAGCTGTCCGCTTT	2.83
TCTGCTAGGTCAGTTGGTCAGCCAACGAGCTGCC	0.782
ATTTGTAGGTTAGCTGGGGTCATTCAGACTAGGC	5.57
TGAATGAGGTTAAAGATCAGGGCACGTGGCGTCG	3.95
TCAAATAGGTAAAGGTGAAAGTCGAACGATATGA	2.33
CCAGACAGGTAAAAGGTAACTCAGTCTGGTACGC	1.09
CCTACTGGGCCATCGGGTCATTGATATCAACGTT	1.89
CCTACTGGGCCAAAGGTCATTGGTTCCAATGCTC	6.11
CTCGTAAGGTCGTGCTCAGGTGAGTATACCAAAC	2.68
GCTAGCAGGCCATTTGGGTCACTAAATGACGGGC	0.776
GCCACTGGGGCATCAGCAGGTTACCATAACTTAA	0.212
ACTAGCAGGCCAAGTTTGGGTCAATCAAACAAAG	0.858
TCTAGTTGATCACGGAGGTCACACACGACGGGTA	4.56
AGAATGAGGTTATATGTAGATCAGGGAAGAAAGT	2.1
GATACAGGGTCAAGGCCAGCGTACGCGTATTGAT	5.61
CCGAGGAGGTTATGGGGCATTCAGGCAACGGTGA	1.95
TCAGACAGGTGAAGGTACCTCAGGTACGCAGTCG	1.05
TCTTGTAAATCAATAGAGGTTAAGAAAGTGCGCT	1.46
GCATATAGGTAATACAAGGTGAAAGTTCGATTGT	1.5
TCATATAGGTAAATGCTAGGTGAAAGTGCGATCT	1
CCTAGTAGGCCAGGGTCACTCAAGCATTTCGCTT	3.3
CAAACTAGGCCACGAAAGGTCAAAGTCGAATGAC	6.58
ATCTCTAGGTAAAGATAGTTCACTGAATGCAAAT	0.828
ACTCGTAGGACAAAGGTCAGAGCTACGCCAGTGA	5.3
TTACCAAGGTGAGCTGAGCTCGTTGATCCAACTC	0.0974
TAGCCTAGGTCCTGCGGGCCAGTATAGTGTCGGC	-0.822
CGAACTAGGTCATTGACAAGACAGTGAATAGTAA	2.68
CCACACAGGTGAAAGGTAACTCAGTCTGGTACGC	2.32
ACTAGTTGGTCAGCTGAGGTCACACAGAATTCGG	4.19
TGTCAAAGTTCAAAAGTAACGTAAGTATCCACAC	4.57
ACAGACAGGTGATGAAGGTAACTCATGCTATCAT	0.382
GCGATTGGGGCAAAGCAGGTTACCATAAGGTTGG	0.619
CGAACTATGTCAGAACAGGACAGTGAAGGATGAT	0.167
CGTCCAACGTCAATGCTAGGTCAGTGAAAGCATT	0.267
TAGCCTAGGTCATTCAGGAGCCAGTATAGAAAGC	2.96
GGAACGAGGGCAAAGTTGATCGCATCTGTCGACG	1.92
TAAGACAGGTGAAGGTAACTCAGGTACGCAGTCG	0.793

----------
tested on: VDR homodimer (NR concentration 270 nM); assay: PBM binding z-score (relative to random genomic background probes); higher = stronger binding; sequences stand for … in GC…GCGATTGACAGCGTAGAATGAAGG
reported metric: PBM binding z-score

ACTATTTGTTGACTTAGGGCAACCGATACGACGC	0.486
AATACAGGGTCATCGTAGGCCAGAGGACGCACAG	3.53
CTCGCAAGGTCGTGCTCAGGTGAGTATACCAAAC	1.22
TGAATGAGGTTATAAGATAAGGGAACGTTGCAAA	0.0331
TCTCGGAGGACACGTAAGGTCAGAGCTCGACATC	1.25
CGAACAAGGGCATGAGTTGATAGCAAATGCCGAT	1.18
CTCGAAAAGTCGTGCTCAGGTGAGTATACCAAAC	-0.43
ATCGAAAGGTCGAGGTGATTATAGAGAAAGGGAA	0.821
AATACAGGGTCACTAGGCCAGAATAGGTACGAAT	2.52
CCGACTGGGGCACAAAGGTTACCATACCATCCGG	0.375
CGTCCAAGGTCAATGCTAGGTCGGTGAAAGCATT	2.04
CGTCCAAGGTCATAGGAGGTCAGCGAAGACAGAT	4.37
CGAACTAGGTCCGAACAGGACAGTGAAGGATGAT	-0.155
AGAATGAGGTTTTACGTAGATCAGGGAAGAAAGT	0.172
TCTTCTAGATCAATAGAGGTTAAGAAAGTGCGCT	0.255
CCGGGTAGGTTATGGGGCATTCAGGCAACGGTGA	0.138
TTATCAAGGTGAGCTGAGGTCGTTGATCCAACTC	2.33
CAAACTAGCTCAAAGGTCAAAGTCGAGCCAACCA	2.62
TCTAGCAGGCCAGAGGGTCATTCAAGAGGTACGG	1.28
TCGTGTAGATCAGCAGGTTAAGAAAGCTGGCCAA	-0.282
TCTTCTAGGTCAGTTGGTCAGCTAACGAGCTGCC	0.514
GCGGACAGGTGAAACGCAGGTAACTCAGGGTGGC	-0.834
TCATATAGGTAAACGCTAGGTGAAAGTCCGATCT	0.251
GCTGCTGGGTCAGGTTGGTCAGCTAACGGGTACG	0.573
ATCGAGAGGTCGAGGTGAGTATAGAGAAAGGGAA	0.635
ACTAGCAGGCCAAGGGTCAATCAAGATTAGTCCG	0.551
CGTCCAAGGTCAATGCTAGGTCAGTGAGAGCATT	3.36
TCTTGTAGATTAACAGGAGGTTAAGAAAGATCGA	0.0136
TCGAGTTGGTTAGTCGGGGCATTCAGCCAACATA	0.871
TAGCCTAGGTCATTGGGCCATTATAGTACGCATC	1.44
TCGAGAAGGTTAGGGGCATTCAGAATGGCGTCGA	0.971
ACTCGGAAGACAAAGGTCAGAGCTACGCCAGTGA	0.445
ATATGTAGGTTATCGGGTCTTTCAGTTTGCGCAT	1.44
TCATATAGGTAATGCAGGTGAAAGTCGGCATCTA	0.176
TCTGCTAGGTCAGCTGGTCAGCTAACGAGCTGCC	-1.3
AGAATGAGGTTATTAAGATCAGGGATTTGCGGTC	1.2
CGAGCTAGGTCAAGGACAGTGAATCTCCGCACGC	-0.0669
CCGACTGCGGCATAAGGTTACCATAAGCCAGCCC	-0.279
ATCGCTAGGTAAAAGTTCAGTGAATCCCGAGGAT	1.16
TATACAGGGTCATAGGCCAGAGTACGAATGTCGA	3.52
GCGACTGGGGCATCAGTAGGTTACCATAACTTAA	-0.583
CCTTAAGGGTCAAGGTTATAGCACGGGTGGTACG	2.39
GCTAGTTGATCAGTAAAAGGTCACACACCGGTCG	1.8
TCATATAGGTAAAAGGTGAAATTCGGTGTGGTAA	0.37
TCGAGTAGGTTATCAATGGGGCATTCAGCTTTCT	-0.119
CAGCCTAGGTCAGGGCCAGCATAGGAGGAACGTT	-0.327
ACTAGCAGGCCAAGGGTCACTTAAGATTAGTCCG	0.981
GCGACTGGGGCATCAGCAAGTTACCATAACTTAA	-0.296
AGAACGAGGGCACGCTGAGTTGATGGCAGAGTAG	1.71
TGAATGAGGTTATAAGCTCAGGGAACGTTGCAAA	0.00669
AGAATGAGGCTACCAAAGATCAGGGAAACGCTTG	-0.541
